# procedure text: ovarian cancer cell viability with rucaparib, profiling panel, oncology-focused library, rucaparib conditional (AID 1508598)
# test parameters: patient-derived ovarian cancer cells, CellTiter-Glo viability, 144 h; at 5 µM; OCI-P5x cells; with rucaparib 20 µM; hits give low values; 100% = cells with rucaparib alone
Recorded measurements of viability, one per entry
# value in %; strip the unit string

CC1=C(/C=C/C(C)=C/C=C/C(C)=C/C(=O)O)C(C)(C)CCC1
93.6

Give viability for O=c1[nH]cc(F)c(=O)[nH]1
82.4

Give viability for S=c1nc[nH]c2nc[nH]c12
79

Give viability for CC(C)C(=O)Nc1ccc([N+](=O)[O-])c(C(F)(F)F)c1
104

Give viability for NC(=O)c1ccc(-c2nc(-c3ccc4c(c3)OCO4)c(-c3ccccn3)[nH]2)cc1
102

Give viability for CCCCCCNC(=O)n1cc(F)c(=O)[nH]c1=O
76.9

Give viability for CCN(CC)C(=S)SSC(=S)N(CC)CC
110

Give viability for CN(CCOc1ccc(CC2SC(=O)NC2=O)cc1)c1ccccn1 (centres undefined)
103

Give viability for Cc1ccc(-c2cc(C(F)(F)F)nn2-c2ccc(S(N)(=O)=O)cc2)cc1
109
